Origin of measurements: patent US20200339680A1

Target: T1, human TMEM106B (human, UniProt Q9NUM4 2-274)
T1 construct: full-length, transiently expressed on HEK293 cells, or natively expressed on HeLa, U251 and A549 cells (the cell is named under assay); also the source of the Pepscan peptides; also called huTMEM106B; huTMEM
Test: FACS HEK+huTMEM 10 ug/ml;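 note: flow cytometric binding of purified mouse IgG antibodies to HEK293 cells transiently expressing human TMEM106B, read as median fluorescence intensity on live cells with propidium iodide-positive cells excluded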
measuredQuantity: MFI (MFI)
A number alone suffices; assume MFI.

| binder | MFI (MFI) |
| --- | --- |
| TM-17 (antibody, V domains shown) VH: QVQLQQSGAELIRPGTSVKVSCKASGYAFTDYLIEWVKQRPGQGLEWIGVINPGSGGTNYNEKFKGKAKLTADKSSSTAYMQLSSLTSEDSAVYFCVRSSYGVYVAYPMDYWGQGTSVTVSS VL: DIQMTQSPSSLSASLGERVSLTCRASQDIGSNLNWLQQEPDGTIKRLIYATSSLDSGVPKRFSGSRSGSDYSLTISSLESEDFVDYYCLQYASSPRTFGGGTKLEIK | 3960 |

Okay, now this binder:
For record TM-7 (antibody, V domains shown) VH: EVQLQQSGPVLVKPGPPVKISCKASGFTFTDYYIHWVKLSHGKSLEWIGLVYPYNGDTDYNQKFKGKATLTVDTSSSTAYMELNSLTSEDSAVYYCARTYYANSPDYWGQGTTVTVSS VL: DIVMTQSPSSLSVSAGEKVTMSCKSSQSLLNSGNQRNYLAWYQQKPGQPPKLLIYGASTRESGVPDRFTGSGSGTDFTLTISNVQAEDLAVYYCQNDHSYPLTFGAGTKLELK the listed MFI is 40800
